PROCEDURE_DETAILS: rate of dissolution in H2O at 25° C.
Type: physicochemical
CONDITIONS_USED: H2O, 25° C.; time for the amount printed in the same cell (see E2)
MEASURED_ATTRIBUTE: Rate of dissolution in H2O at 25° C.: time

COMPOUND	REPORTED_VALUE
C=C1C[C@@]23CC[C@H]4[C@@](C)(CCC[C@@]4(C)C(=O)O[C@@H]4O[C@H](CO)[C@@H](O)[C@H](O)[C@H]4O)[C@@H]2CC[C@]1(O[C@@H]1O[C@H](CO)[C@@H](O)[C@H](O)[C@H]1O[C@@H]1O[C@H](CO)[C@@H](O)[C@H](O)[C@H]1O)C3 [Form 2 A, stevioside]	2 min
C=C1C[C@@]23CC[C@H]4[C@@](C)(CCC[C@@]4(C)C(=O)O[C@@H]4O[C@H](CO)[C@@H](O)[C@H](O)[C@H]4O)[C@@H]2CC[C@]1(O[C@@H]1O[C@H](CO)[C@@H](O)[C@H](O)[C@H]1O[C@@H]1O[C@H](CO)[C@@H](O)[C@H](O)[C@H]1O)C3 [Form 2B, stevioside]	<1.0 min
C=C1C[C@@]23CC[C@H]4[C@@](C)(CCC[C@@]4(C)C(=O)O[C@@H]4O[C@H](CO)[C@@H](O)[C@H](O)[C@H]4O)[C@@H]2CC[C@]1(O[C@@H]1O[C@H](CO)[C@@H](O)[C@H](O)[C@H]1O[C@@H]1O[C@H](CO)[C@@H](O)[C@H](O)[C@H]1O)C3 [Form 1, stevioside]	30 min

Please find the next compound below.
Task: # Rate of dissolution in H2O at 25° C.: time lookup, item C=C1C[C@@]23CC[C@H]4[C@@](C)(CCC[C@@]4(C)C(=O)O[C@@H]4O[C@H](CO)[C@@H](O)[C@H](O)[C@H]4O)[C@@H]2CC[C@]1(O[C@@H]1O[C@H](CO)[C@@H](O)[C@H](O)[C@H]1O[C@@H]1O[C@H](CO)[C@@H](O)[C@H](O)[C@H]1O)C3 [Form 4, stevioside]
Output: <1.0 min
